Where do the numbers come from? From PubChem BioAssay AID179.

Kindly supply the reported pIC50 values for the records listed here.
tested on: CEM cells HIV-1 protection, formazan growth assay; experiment: NCI AIDS Antiviral Assay; details: measured here: growth of uninfected CEM cells
Numbers only, as −log10 of the molar value.

Observe how each entry below is paired with its result.
{"COMPOUND": "CCCCCCCCCCOC1C(C(C)OCCCN(C)C)OC2OC3(CCCCC3)OC21 (configuration not stated)", "ASSAY TARGET": "CEM cells HIV-1 protection, formazan growth assay", "pIC50": 4.98}
{"COMPOUND": "C=Cc1ccc(C)[n+](C[Si](C)(C)O[Si](C)(C)C)c1", "ASSAY TARGET": "CEM cells HIV-1 protection, formazan growth assay", "pIC50": 3.51}
{"COMPOUND": "CN(C)Cc1cc(C(=O)/C=C/c2ccc([N+](=O)[O-])cc2)cc(CN(C)C)c1O", "ASSAY TARGET": "CEM cells HIV-1 protection, formazan growth assay", "pIC50": 5.55}
{"COMPOUND": "Clc1ccc([S+](c2ccc(Cl)cc2)C(Cl)(Cl)C(Cl)(Cl)Cl)cc1", "ASSAY TARGET": "CEM cells HIV-1 protection, formazan growth assay", "pIC50": 5.14}

Would you mind listing pIC50 for each of the following compounds?
1. C#Cc1cccc(NC(=O)/C=C\C(=O)O)c1
2. CCS(=O)(=O)c1cc(=O)[nH]c(=O)[nH]1
3. N#CCN1CCCN(CC#N)CCN(CC#N)CCCN(CC#N)CC1
4. Brc1ccc(N=Nc2ccc3ccccc3n2)cc1
5. CN1CCN(Cc2nc3c(s2)CCc2sccc2-3)CC1
6. CC(=O)Nc1cc2c3c(c1)CCCN3CCC2
7. C(=Nc1cnc2ccccc2c1)c1cccnc1
8. COCCN(C(=O)c1ccccc1)C1CCC2(SCCS2)c2[nH]c3ccccc3c21 (configuration not stated)

Reply text:
3.27
3.62
3.85
4.04
4.24
4.40
3.71
4.62

Would you mind listing pIC50 for each of the following compounds?
1. O=c1c2ccccc2[se]n1-c1ccccc1
2. COc1ccc(NS(=O)c2cccc(C)c2)cc1 (configuration not stated)
3. Oc1ccc(S)cc1CNC1CCCCC1
4. C[C@@H]1CC[C@@]2(OC1)O[C@H]1C[C@H]3[C@@H]4CC[C@H]5C[C@@H](OC6OC(CO)C(OC7OC(CO)C(O)C(OC8OCC(O)C(O)C8O)C7OC7OC(CO)C(O)C(O)C7O)C(O)C6O)[C@H](O)C[C@]5(C)[C@H]4CC[C@]3(C)[C@H]1[C@@H]2C (some centres not stated)

Reply text:
4.75
4.95
4.88
6.00
